Quick reference for OD (PE binding ELISA) among some binders
Tgt: T1, human IL-2Rα (human, UniProt P01589 22-240, limits assumed)
T1 construct: recombinant protein; also called hu IL-2R; human IL-2Ra
T1 sequence: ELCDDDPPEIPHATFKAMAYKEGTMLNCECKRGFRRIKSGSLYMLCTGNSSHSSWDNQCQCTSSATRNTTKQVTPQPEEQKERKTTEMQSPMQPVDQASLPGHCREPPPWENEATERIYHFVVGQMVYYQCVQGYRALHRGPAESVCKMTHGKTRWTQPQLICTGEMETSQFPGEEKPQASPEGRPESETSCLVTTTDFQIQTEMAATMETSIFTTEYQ
Method Description: ELISA, P.E. on coated antigen
# number only, unit OD450 nm dropped from output

- Binder: "FJ1427_P035MP05B07 (VHH, periplasmic extract; also called clone nr) VHH: QLQLVESGGGLVQAGGSLRLSCAASGLTFDGYAIGWFRQASGKEREGVSYINGRDGSTFYADSVKGRFIISSDNAKNTVDLQMNSLKPDDAAVYYCAVDRLGSRGAYVSSWWRSPDMDLWGKGTLVTVSS"
  Measured Value: 1.77

What value of measured OD (PE binding ELISA) is listed for FJ1427_P035MP01E12 (VHH, periplasmic extract; also called clone nr; 93) VHH: QVQLVESGGGLVQAGGSLRLSCAASGITFNDHTMAWFRQAPGKEREFVAARDWSDIITRYASSVKGRFTISRDNAGNTGFLQMNSLRPEDTAVYYCAAREGGVVAGVRSGAPYDYWGQGTQVTVSS ?
2.69
